Can you tell me growth inhibition for the items I'm about to list?
- experimentalProtocol: NCI Yeast Anticancer Drug Screen. Data for the mec2-1 strain (AID 157)
- conditions: S. cerevisiae mec2-1 strain, at 50.0 µM (retest, dose inferred, filed as 5.0), stronger effect = higher value
The panel holds about 79,000 compounds, 15% with a hit somewhere; the sample as a whole holds those more often. Activity calls are given as the source filed them. Rule as the data show it: active = growth inhibition above about 70%; inactive = the rest.

Reference set (3 entries):
- compound: "O=C(CC(O)(c1ccccc1)c1ccc(Cl)cc1)NC(=O)c1ccccc1O (stereo not drawn)"
  measurementKind: "growth inhibition"
  testResult: "98% (active)"
- compound: "O=C(Nc1ccc([N+](=O)[O-])cc1[N+](=O)[O-])C(=O)C(C(=O)c1ccc(Cl)c(Cl)c1)C1OC(=O)c2ccccc21 (stereo not drawn)"
  measurementKind: "growth inhibition"
  testResult: "25% (inactive)"
- compound: "COC(=O)c1cn(NS(=O)(=O)c2ccc(OC)cc2)cc1C(=O)OC"
  measurementKind: "growth inhibition"
  testResult: "4% (inactive)"

Kindly give each listed record's growth inhibition.
1. Cc1ccc(C(=O)/C=C/c2ccccc2)cc1
2. CC(C)C1=CC23CCC4C(C)(C(=O)O)CCCC4(C)C2CC1CC3C#N (stereo not drawn)
3. CC1=NC(c2ccccc2)(C2(c3ccccc3)C(c3ccccc3)=C2c2ccccc2)C(=O)O1 (stereo not drawn)
4. CC(C)(C)c1c2c(c(C(C)(C)C)c3c1OCN(Cc1ccccc1)C3)OCN(Cc1ccccc1)C2
5. CC(=O)OC1CCC2(C)C(CCC3C4=CCC(C5COC(=O)C5)C4(C)CCC32)C1 (stereo not drawn)
6. O=C(CCl)OCC(=O)c1ccc(-c2ccccc2)cc1

Result block:
1: 14% (inactive); 2: 34% (inactive); 3: 25% (inactive); 4: -13% (inactive); 5: 94% (active); 6: 97% (active)

Please state, for each entry, its recorded growth inhibition.
1. CC(C)N1C(=O)c2ccccc2S1(Cl)c1ccccc1 (stereo not drawn)
2. COc1ccc(-c2cc3ccccc3c(=O)n2Cc2ccccc2)cc1
3. O=C1C(N=Nc2ccccc2)=C(O)C2C3C=CC(C3)C12 (stereo not drawn)

Result block:
1. 6% (inactive)
2. 74% (active)
3. 98% (active)

Look at each compound and report its growth inhibition.
1. Fc1cccc(NC(=S)SCc2ccc(Cl)cc2)c1
2. CC(C)(C)CC(C)(C)c1ccc(O)cc1O
3. CC(=O)N=C1N(/C=C2\C(=O)Oc3ccccc3C2=O)C(=O)/C(=C/c2cccc(Cl)c2Cl)N1C
4. COc1cc2c(cc1OC)NCC1COc3c(ccc(OC)c3OC)C1=N2 (stereo not drawn)
5. Cc1ccc2ccc(C(Nc3ccccc3)c3ccncc3)c(O)c2n1 (stereo not drawn)
6. CCOc1ccc(/C=C2\NC(=S)N(/C=C3\C(=O)Oc4ccccc4C3=O)C2=O)cc1
7. c1ccc(CCN(Cc2nc3ccccc3[nH]2)Cc2nc3ccccc3[nH]2)cc1
8. NS(=O)(=O)c1ccc(-n2cccc2)cc1

Result block:
98% (active)
99% (active)
61% (inactive)
8% (inactive)
95% (active)
71% (active)
92% (active)
-3% (inactive)

// batch mode: one growth inhibition value per listed entry
1. CN(C)c1ccc(C=Nc2ccc(OCCCCCCCCCCC(=O)O)cc2)cc1
2. O=C(Cc1ccccc1)NNc1nc(NNC(=O)c2ccncc2)nc(Nc2ccccc2)n1
3. CCCCCCCCCCCCn1cnc2ncnc(Cl)c21
4. C=Cc1cc(=O)oc2cc(OC)ccc12
5. CC(CC(C)[C@H]1CCC2[C@H]3C(CC(=O)[C@@]21C)[C@@]1(C)CCC(O)C[C@H]1C[C@@H]3O)C(=O)O (stereo partly drawn)
6. CCOC(=O)C[P+](c1ccc(C)cc1)(c1ccc(C)cc1)c1ccc(C)cc1
7. O=[N+]([O-])c1cc(Cl)cc(C(c2cc(Cl)cc([N+](=O)[O-])c2O)C(Cl)(Cl)Cl)c1O
8. CCOC(=O)c1c(Cl)nc2ccccc2c1N=[N+]=[N-]

Result block:
1. 99% (active)
2. 11% (inactive)
3. 54% (inactive)
4. 99% (active)
5. 99% (active)
6. 94% (active)
7. 98% (active)
8. 95% (active)
